I'd be grateful if you could share measured pIC50 for these entries.
- target_desc: PAD4 enzyme (Homo sapiens (Human))
- Sequence (Q9UM07 whole entry): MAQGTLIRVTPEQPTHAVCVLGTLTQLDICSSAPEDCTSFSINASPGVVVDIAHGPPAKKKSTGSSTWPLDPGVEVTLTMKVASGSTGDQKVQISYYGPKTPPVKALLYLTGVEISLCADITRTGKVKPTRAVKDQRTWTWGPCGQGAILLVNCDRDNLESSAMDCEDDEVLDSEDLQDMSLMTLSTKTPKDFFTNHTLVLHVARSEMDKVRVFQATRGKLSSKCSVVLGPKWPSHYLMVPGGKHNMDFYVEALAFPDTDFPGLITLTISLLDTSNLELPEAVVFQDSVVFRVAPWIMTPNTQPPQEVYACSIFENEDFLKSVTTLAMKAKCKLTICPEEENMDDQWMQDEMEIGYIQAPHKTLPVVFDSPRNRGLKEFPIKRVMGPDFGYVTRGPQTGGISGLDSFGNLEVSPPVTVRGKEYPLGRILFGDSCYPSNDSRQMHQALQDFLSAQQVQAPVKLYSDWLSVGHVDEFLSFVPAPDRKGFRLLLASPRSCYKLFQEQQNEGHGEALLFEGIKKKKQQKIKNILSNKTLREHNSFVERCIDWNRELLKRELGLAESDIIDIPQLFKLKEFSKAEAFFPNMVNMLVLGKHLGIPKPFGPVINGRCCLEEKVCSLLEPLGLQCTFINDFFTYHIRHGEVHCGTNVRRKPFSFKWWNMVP
- protocol_summary: Ammonia Release Biochemical Assay (citrullination detected via ammonia release)
- assay_conditions: PAD4 120 nM, substrate BAEE, 60-min preincubation, read-out: NH3 release
pIC50: −log10 of the molar value.

These recorded examples may help you get a feel for the data.
smiles_notation: COCCn1c(-c2nc3cc(C(=O)N4CCC[C@@H](N)C4)cc4c3n2CCO4)cc2cc(F)ccc21
result: ≥ 6.00

smiles_notation: N[C@@H]1CCCN(C(=O)c2cc3c4c(c2)nc(-c2cc5ccccc5n2Cc2cnccn2)n4CCO3)C1
result: ≥ 6.00

smiles_notation: COCCn1c(-c2nc3cc(C(=O)N4CCC[C@@H](N)C4)cc4c3n2CCO4)cc2cccc(Cl)c21
result: ≥ 6.00

smiles_notation: N[C@@H]1CCCN(C(=O)c2cc3c4c(c2)nc(-c2cc5ccc(F)cc5n2CC2CC2)n4CCO3)C1
result: ≥ 6.00

smiles_notation: COCCn1c(-c2nc3cc(C(=O)N4CCC[C@@H](N)C4)cc4c3n2CCO4)cc2cc(F)c(F)cc21
result: 5.00 to 6.00

smiles_notation: N[C@@H]1CCCN(C(=O)c2cc3c4c(c2)nc(-c2cc5cccc(Cl)c5n2Cc2ncccc2F)n4CCO3)C1
result: ≥ 6.00

# return pIC50 for each item in the list
1. N[C@@H]1CCCN(C(=O)c2cc3c4c(c2)nc(-c2cc5ccccc5n2Cc2ncccc2F)n4CCO3)C1
2. CCn1c(-c2nc3cc(C(=O)N4CCC[C@@H](N)C4)cc4c3n2CCO4)cc2cccnc21

["≥ 6.00", "5.00 to 6.00"]

# credit: patent US11833156B2
